Measured values drawn from patent US20250145711A1 for this set.

target: T1, TRCW5 antigen (CD3δε-Fc-Avi) (biotinylated (site not stated)); test: ELISA after heat
T1 construct: also called recombinant CD3
T1 sequence (chain, as listed by the source mutant limits assumed): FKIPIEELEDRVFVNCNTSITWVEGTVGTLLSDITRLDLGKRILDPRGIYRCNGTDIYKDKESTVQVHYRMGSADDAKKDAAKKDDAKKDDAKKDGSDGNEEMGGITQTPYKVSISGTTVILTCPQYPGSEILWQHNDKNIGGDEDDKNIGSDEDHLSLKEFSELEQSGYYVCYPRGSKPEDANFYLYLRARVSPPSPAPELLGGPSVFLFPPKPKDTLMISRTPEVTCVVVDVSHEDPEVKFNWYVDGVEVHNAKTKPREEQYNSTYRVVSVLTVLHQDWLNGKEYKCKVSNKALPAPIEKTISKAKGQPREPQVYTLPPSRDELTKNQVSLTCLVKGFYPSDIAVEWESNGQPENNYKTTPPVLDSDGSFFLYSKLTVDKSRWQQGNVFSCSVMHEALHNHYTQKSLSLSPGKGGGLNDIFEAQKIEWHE
Reported % Retained 60° C. values for a set of binders
reportedEndpoint: % Retained 60° C.

[[record]]
binder = "CD3B2043 (scFv) scFv: QVQLVQSGAEVKKPGSSVKVSCKASGYTFTRSTMHWVRQAPGQGLEWIGYINPSSAYTNYNQKFQGRVTLTADKSTSTAYMELSSLRSEDTAVYYCASPQVHYDYNGFPYWGQGTLVTVSSGGSEGKSSGSGSESKSTGGSEIVLTQSPATLSASPGERVTLSCSASSSVSYMNWYQQKPGTAPRRLIYDSSKLASGVPARFSGSGSGRDYTLTISSLEPEDFAVYYCQQWSRNPPTFGGGTKVEIK"
assayvalue = "88%"

[[record]]
binder = "CD3B2031 (scFv) scFv: QVQLVQSGAEVKKPGSSVKVSCKASGYTFTRSTMHWVKQAPGQGLEWMGYINPSSAYTNYNQKFQGRVTLTADKSTSTAYMELSSLRSEDTAVYYCASPQVHYDYNGFPYWGQGTLVTVSSGGSEGKSSGSGSESKSTGGSEIVLTQSPATLSASPGERVTLSCSASSSVSYMNWYQQKPGTAPRRWIYDSSKLASGVPARFSGSGSGRDYTLTISSLEPEDFAVYYCQQWSRNPPTFGGGTKVEIK"
assayvalue = "104%"

